# Test system: MS2 coat protein
# Experiment notes: apparent KD of MS2 coat protein; designed switch direction (-1 OFF switch, 1 ON switch): -1; higher = weaker reporter binding
# Details: input ligand: none

{"columns": ["Seq string", "Measurement units", "apparent KD of MS2 coat protein"],
 "data": [
  ["UUAAUUAAUAAUUAAGAUCAUUACAUGAGGAUCACCCAUGUCGAGGAUAUCAGCUCGUGUAGAGCUGAGAAGGCGACAAAUUAU [ExNG3/13-B3] (Eterna round: R96, puzzle: Exclusion NG 3)", "nM", 633],
  ["UUGAAGUCAGGAUAUCGUUAAUUUAGUUGUUUGUAUUAGUUCGAGAAGGGACAUGAGGAUCACCCAUGUAAGUA [Ex4 #47] (Eterna round: R97, puzzle: Exclusion 4)", "nM", 40.5],
  ["GGCGGACAUGAGGAUCACCCAUGUCAGGAUAUGGUGCGAUCGUCGAUAGACGAUAGCACCAGAAGGGACACGCC [Mat - Exclusion 1 - Eli Mod - D1] (Eterna round: R97, puzzle: Exclusion 1)", "nM", 19.8],
  ["UAUUGCUGAGGAUAUAUAUAGAGCAUUUUCCUCGUGACAGAACAUGAGGAUCACCCAUGUAGAAGGCAGAAGUG [Eternabot (L2) Solution 87] (Eterna round: R97, puzzle: Exclusion 2)", "nM", 192],
  ["CAUGAUUGGCGAGGAUAUUGACCUAGUUCGCGACGAGAAGGCGCCUGUCACAUGAGGAUCACCCAUGUGAAUCUGGUGAAAGAG [Ex NG1 #91] (Eterna round: R96, puzzle: Exclusion NG 1)", "nM", 20.3],
  ["AGCUAGUCAGGAUAUUCUAAUAAUUACAUGAGGAUCACCCAUGUGCAUAGACAAGGGUGUGAAGAAGGGACUAGCG [Omei Ex5 A7] (Eterna round: R97, puzzle: Exclusion 5)", "nM", 2530],
  ["UAGCAAGCAAUAAGAUCCCACAUGAGGAUCACCCAUGUGCUCGUCUUAUAAAAGGUUUCGACGAAAACGUCGAGACC [Eli 91 v28] (Eterna round: R97, puzzle: Sensor, turn-off variant 1)", "nM", 16],
  ["GGAUCGAGUGUGAGGAUAUACCUAUGGAUACAUAGGUAGAAGGCACAUGAGGAUCACCCAUGUUCCUACGGUCC [Eli bmx4 4.08] (Eterna round: R97, puzzle: Brourd's mod of Exclusion 4)", "nM", 62.3],
  ["GCUUGUGGGCAAGGAUAUCCUGCGCUGUUCUGGUUCGUGUCUGUCACAUGAGGAUCACCCAUGUGGGAGAAGGUGCCUGUGGCG [Design 66] (Eterna round: R96, puzzle: Exclusion NG 2)", "nM", 24.2],
  ["AGAUCGUCAGGAUAUACAUGAGGAUCACCCAUGUGUAGUUCCAAUUGGACUACAACAUGUAGAAGGGACGAUCG [Exclusion 3 (MOD1 of #1 Marzena11)] (Eterna round: R97, puzzle: Exclusion 3)", "nM", 675],
  ["AACUGUGAGGCAGGAUAUGAAGCAUGGGCCGCGUGAUAAUACAUGAGGAUCACCCAUGUAGGGAUUCAGAAGGGCCCAGAGCAC [Atusveer] (Eterna round: R96, puzzle: Exclusion NG 2)", "nM", 18.2]
]}

The measured values listed here are drawn from the supplement of paper PMC9170038.
